Target: LHRH receptors (Rattus norvegicus)
Construct: Pituitary membranes containing LHRH receptors are prepared in batches from quick-frozen rat pituitaries; tissue Hilltop Labs; host or cells: rat pituitary membranes
Sequence (P30969 whole entry): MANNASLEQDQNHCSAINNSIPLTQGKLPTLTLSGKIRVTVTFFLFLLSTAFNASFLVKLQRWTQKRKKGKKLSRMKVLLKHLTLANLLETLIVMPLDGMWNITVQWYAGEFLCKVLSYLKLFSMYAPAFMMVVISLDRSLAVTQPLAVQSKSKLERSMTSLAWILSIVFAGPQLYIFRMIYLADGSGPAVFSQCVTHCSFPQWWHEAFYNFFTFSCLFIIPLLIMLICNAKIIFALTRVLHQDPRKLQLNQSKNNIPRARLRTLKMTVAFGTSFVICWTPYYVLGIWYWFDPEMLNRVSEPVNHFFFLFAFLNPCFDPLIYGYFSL
Experiment: Receptor Binding (radioligand receptor binding assay)
Details: table 4; rat pituitary membranes, radioligand 50 pM, 2 hours at 4° C.; read-out: Receptor Binding pkI (converted)
Numbered stars: 1 amine (or outer) side, 2 acyl side, 3 side chain; on linkers, the order of the positions; unused ones are H or OH. Square brackets hold non-standard residues; d marks the D form. Peptide text beside a SMILES is read from it. * marks the point of attachment. 1Nal = N[C@@H](Cc1cccc2ccccc12)C(=O)O; NMeY = CN[C@@H](Cc1ccc(O)cc1)C(=O)O; Nicotinoyl = O=C(c1cccnc1)*; X4 = O=C(CCc1cccc(F)c1)*; CO = O=C([*:1])[*:2]
quantity-name: Ki (pM)
# output: bare number, implied unit pM

| compound | tested-target | value |
| --- | --- | --- |
| CCNC(=O)[C@@H]1CCCN1C(=O)[C@H](CCCN=C(N)N)NC(=O)[C@H](CC(C)C)NC(=O)[C@@H](CCCCNC(=O)c1cccnc1)NC(=O)[C@H](Cc1ccc(O)cc1)N(C)C(=O)[C@H](CO)NC(=O)[C@@H](Cc1c[nH]c2ccccc12)NC(=O)CCc1cccc(F)c1 [Compound 153] (X4-[dW]S[NMeY][dK](Nicotinoyl)LRP-NHEt) | LHRH receptors (Rattus norvegicus) | 24 |

Would you kindly look at the next entry?
The compound identified as CCNC(=O)N[C@@H](Cc1ccccc1)C(=O)N[C@@H](Cc1cccc2ccccc12)C(=O)N[C@@H](CO)C(=O)N[C@@H](Cc1ccc(O)cc1)C(=O)N[C@H](Cc1c[nH]c2ccccc12)C(=O)N[C@@H](CC(C)C)C(=O)N[C@@H](CCCNC(=N)N)C(=O)N1CCC[C@H]1C(=O)NCC [Compound 239] ({NHEt-CO}-F[1Nal]SY[dW]LRP-NHEt) registered its Ki at 832

###

Target: LHRH receptors (Rattus norvegicus)
Construct: Pituitary membranes containing LHRH receptors are prepared in batches from quick-frozen rat pituitaries; tissue Hilltop Labs; host or cells: rat pituitary membranes
Test: Receptor Binding (radioligand receptor binding assay)
Details: table 4; rat pituitary membranes, radioligand 50 pM, 2 hours at 4° C.; read-out: Receptor Binding pkI (converted)
Square brackets hold non-standard residues; d marks the D form. Peptide text beside a SMILES is read from it. * marks the point of attachment. Propanoyl(3-(4-F-phenyl)) = O=C(CCc1ccc(F)cc1)*; d1Nal = N[C@H](Cc1cccc2ccccc12)C(=O)O; Lys(iPr) = CC(C)NCCCC[C@H](N)C(=O)O; NMeY = CN[C@@H](Cc1ccc(O)cc1)C(=O)O; Nicotinoyl = O=C(c1cccnc1)*
Output YES for records whose Ki is lower than 0.01 nM, NO for records at or above 0.01 nM.

| compound | group |
| --- | --- |
| CC(C)C[C@H](NC(=O)[C@@H](CCCCNC(=O)c1cccnc1)NC(=O)[C@H](Cc1ccc(O)cc1)N(C)C(=O)[C@H](CO)NC(=O)[C@@H](Cc1cccc2ccccc12)NC(=O)CCc1ccc(F)cc1)C(=O)N[C@@H](CCCNC(=N)N)C(=O)N1CCC[C@H]1C(=O)N[C@H](C)C(N)=O [Compound 174] ({Propanoyl(3-(4-F-phenyl))}-[d1Nal]S[NMeY][dK](Nicotinoyl)LRP[dA]-NH2) | NO |
| CCNC(=O)[C@@H]1CCCN1C(=O)[C@H](CCCN=C(N)N)NC(=O)[C@H](CC(C)C)NC(=O)[C@@H](Cc1c[nH]c2ccccc12)NC(=O)[C@H](Cc1ccc(O)cc1)NC(=O)[C@H](CO)NC(=O)[C@@H](Cc1cccc2ccccc12)NC(=O)CCc1ccc(F)cc1 [Compound 145] ({Propanoyl(3-(4-F-phenyl))}-[d1Nal]SY[dW]LRP-NHEt) | NO |
| CC(C)C[C@H](NC(=O)[C@@H](CO)NC(=O)[C@H](Cc1ccc(O)cc1)N(C)C(=O)[C@H](CO)NC(=O)[C@@H](Cc1cccc2ccccc12)NC(=O)CCc1ccc(F)cc1)C(=O)N[C@@H](CCCNC(=N)N)C(=O)N1CCC[C@H]1C(=O)N[C@H](C)C(N)=O [Compound 181] ({Propanoyl(3-(4-F-phenyl))}-[d1Nal]S[NMeY][dS]LRP[dA]-NH2) | YES |

# ---- query compound ----
For this compound, is Ki lower than 0.01 nM? CC(C)C[C@H](NC(=O)[C@@H](CCCCNC(=O)c1cccnc1)NC(=O)[C@H](Cc1ccc(O)cc1)N(C)C(=O)[C@H](CO)NC(=O)[C@@H](Cc1c[nH]c2ccccc12)NC(=O)CCc1ccc(F)cc1)C(=O)N[C@@H](CCCCNC(C)C)C(=O)N1CCC[C@H]1C(=O)N[C@H](C)C(N)=O [Compound 195] ({Propanoyl(3-(4-F-phenyl))}-[dW]S[NMeY][dK](Nicotinoyl)L[Lys(iPr)]P[dA]-NH2)
NO

###

Recorded Ki for the following compounds
Molecular target: LHRH receptors (Rattus norvegicus)
Construct: Pituitary membranes containing LHRH receptors are prepared in batches from quick-frozen rat pituitaries; tissue Hilltop Labs; host or cells: rat pituitary membranes
Assay: Receptor Binding (radioligand receptor binding assay)
Details: table 3; rat pituitary membranes, radioiodinated [D-Leu^6 -des Gly^10 ]-LHRH ethyl amide 50 pM, 2 hours at 4° C.; read-out: Receptor Binding pkI (converted)
Numbered stars: 1 amine (or outer) side, 2 acyl side, 3 side chain; on linkers, the order of the positions; unused ones are H or OH. Square brackets hold non-standard residues; d marks the D form. Peptide text beside a SMILES is read from it. * marks the point of attachment. Propanoyl(3-(1-naphthyl)) = O=C(CCc1cccc2ccccc12)*; Propanoyl(3-(4-F-phenyl)) = O=C(CCc1ccc(F)cc1)*; Propanoyl(3-(4-Cl-Ph)) = O=C(CCc1ccc(Cl)cc1)*; Propanoyl(3-(3-pyridyl)) = O=C(CCc1cccnc1)*; Acetyl(1-naphthyl) = O=C(Cc1cccc2ccccc12)*; 2Nal = N[C@@H](Cc1ccc2ccccc2c1)C(=O)O; d2Nal = N[C@H](Cc1ccc2ccccc2c1)C(=O)O; X13 = O=C(CCc1ccc(C(F)(F)F)cc1)*; Nicotinoyl = O=C(c1cccnc1)*; Morpholide = C1CN(*)CCO1; X6 = O=C(CCc1ccccc1F)*; CO = O=C([*:1])[*:2]
# output: bare number, implied unit nM

In the examples that follow, each entry is paired with its recorded Ki.
| compound | tested-target | Ki [nM] |
| --- | --- | --- |
| CCNC(=O)[C@@H]1CCCN1C(=O)[C@H](CCCNC(=N)N)NC(=O)[C@H](CC(C)C)NC(=O)[C@@H](Cc1c[nH]c2ccccc12)NC(=O)[C@H](Cc1ccc(O)cc1)NC(=O)[C@H](CO)NC(=O)[C@H](Cc1ccc2ccccc2c1)NC(C)=O [Compound 84] (Ac-[2Nal]SY[dW]LRP-NHEt) | LHRH receptors (Rattus norvegicus) | 1.41 |
| CCNC(=O)[C@@H]1CCCN1C(=O)[C@H](CCCN=C(N)N)NC(=O)[C@H](CC(C)C)NC(=O)[C@@H](CCCCNC(=O)c1cccnc1)NC(=O)[C@H](Cc1ccc(O)cc1)NC(=O)[C@H](CO)NC(=O)[C@H](Cc1c[nH]c2ccccc12)NC(=O)CCc1ccc(F)cc1 [Compound 119] ({Propanoyl(3-(4-F-phenyl))}-WSY[dK](Nicotinoyl)LRP-NHEt) | LHRH receptors (Rattus norvegicus) | 0.347 |
| CCNC(=O)[C@@H]1CCCN1C(=O)[C@H](CCCNC(=N)N)NC(=O)[C@H](CC(C)C)NC(=O)[C@@H](Cc1c[nH]c2ccccc12)NC(=O)[C@H](Cc1ccc(O)cc1)NC(=O)[C@H](CO)NC(=O)[C@@H](Cc1ccc(O)cc1)NC(=O)[C@H](Cc1ccccc1)NC(=O)N1CCOCC1 [Compound 108] ({Morpholide-CO}-F[dY]SY[dW]LRP-NHEt) | LHRH receptors (Rattus norvegicus) | 0.182 |
| CCNC(=O)[C@@H]1CCCN1C(=O)[C@H](CCCNC(=N)N)NC(=O)[C@H](CC(C)C)NC(=O)[C@@H](Cc1c[nH]c2ccccc12)NC(=O)[C@H](Cc1ccc(O)cc1)NC(=O)[C@H](CO)NC(=O)[C@H](Cc1c[nH]c2ccccc12)NC(=O)[C@@H](Cc1ccc2ccccc2c1)NC(=O)N1CCOCC1 [Compound 111] ({Morpholide-CO}-[d2Nal]WSY[dW]LRP-NHEt) | LHRH receptors (Rattus norvegicus) | 2.75 |
| CCNC(=O)[C@@H]1CCCN1C(=O)[C@H](CCCNC(=N)N)NC(=O)[C@H](CC(C)C)NC(=O)[C@@H](Cc1c[nH]c2ccccc12)NC(=O)[C@H](Cc1ccc(O)cc1)NC(=O)[C@H](CO)NC(=O)[C@H](Cc1c[nH]c2ccccc12)NC(=O)CCc1ccccc1F [Compound 88] (X6-WSY[dW]LRP-NHEt) | LHRH receptors (Rattus norvegicus) | 0.0575 |

The compound identified as CCNC(=O)[C@@H]1CCCN1C(=O)[C@H](CCCNC(=N)N)NC(=O)[C@H](CC(C)C)NC(=O)[C@@H](Cc1c[nH]c2ccccc12)NC(=O)[C@H](Cc1ccc(O)cc1)NC(=O)[C@H](CO)NC(=O)CCc1ccc(C(F)(F)F)cc1 [Compound 79] (X13-SY[dW]LRP-NHEt) registered its Ki at 1.95

The compound identified as CCNC(=O)[C@@H]1CCCN1C(=O)[C@H](CCCNC(=N)N)NC(=O)[C@H](CC(C)C)NC(=O)[C@@H](CCCNC(=N)N)NC(=O)[C@H](Cc1ccc(O)cc1)NC(=O)[C@H](CO)NC(=O)Cc1cccc2ccccc12 [Compound 37] ({Acetyl(1-naphthyl)}-SY[dR]LRP-NHEt) registered its Ki at 20.4

The compound identified as CCNC(=O)[C@@H]1CCCN1C(=O)[C@H](CCCN=C(N)N)NC(=O)[C@H](CC(C)C)NC(=O)[C@@H](CC(C)C)NC(=O)[C@H](Cc1ccc(O)cc1)NC(=O)[C@H](CO)NC(=O)CCc1cccnc1 [Compound 41] ({Propanoyl(3-(3-pyridyl))}-SY[dL]LRP-NHEt) registered its Ki at 1740

The compound identified as CCNC(=O)N[C@@H](Cc1ccccc1)C(=O)N[C@@H](Cc1c[nH]c2ccccc12)C(=O)N[C@@H](CO)C(=O)N[C@@H](Cc1ccc(O)cc1)C(=O)N[C@H](Cc1c[nH]c2ccccc12)C(=O)N[C@@H](CC(C)C)C(=O)N[C@@H](CCCNC(=N)N)C(=O)N1CCC[C@H]1C(=O)NCC [Compound 127] ({NHEt-CO}-FWSY[dW]LRP-NHEt) registered its Ki at 0.2

The compound identified as CCNC(=O)[C@@H]1CCCN1C(=O)[C@H](CCCN=C(N)N)NC(=O)[C@H](CC(C)C)NC(=O)[C@@H](Cc1c[nH]c2ccccc12)NC(=O)[C@H](Cc1ccc(O)cc1)NC(=O)[C@@H]1CCCN1C(=O)[C@@H](Cc1c[nH]c2ccccc12)NC(=O)CCc1ccc(F)cc1 [Compound 100] ({Propanoyl(3-(4-F-phenyl))}-[dW]PY[dW]LRP-NHEt) registered its Ki at 2.88

The compound identified as CCNC(=O)[C@@H]1CCCN1C(=O)[C@H](CCCN=C(N)N)NC(=O)[C@H](CC(C)C)NC(=O)[C@@H](Cc1c[nH]c2ccccc12)NC(=O)[C@H](Cc1ccc(O)cc1)NC(=O)[C@H](CO)NC(=O)[C@@H](Cc1c[nH]c2ccccc12)NC(=O)CCc1ccc(Cl)cc1 [Compound 85] ({Propanoyl(3-(4-Cl-Ph))}-[dW]SY[dW]LRP-NHEt) registered its Ki at 0.0741

The compound identified as CCNC(=O)[C@@H]1CCCN1C(=O)[C@H](CCCNC(=N)N)NC(=O)[C@H](CC(C)C)NC(=O)[C@@H](CCCNC(=N)N)NC(=O)[C@H](Cc1ccc(O)cc1)NC(=O)[C@H](CO)NC(=O)CCc1cccc2ccccc12 [Compound 44] ({Propanoyl(3-(1-naphthyl))}-SY[dR]LRP-NHEt) registered its Ki at 3.98
